Test: small-molecule microarray binders of probe aNog, primary screen, biochemical, biotinylated probe, 635/667 nm fluorescence (AID 1115);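 note: probe is biotinylated aNog protein used at 0.15 µg/mL for 1 h at 4 C; z-score combines 667 nm fluorescence of each spot with its signal to noise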
Settings: higher = more signal
The following compounds are shown together with reported composite z-score values.
Answer as a number with no unit attached.

Solved cases (3 shown):
compound	measurement label	value observed
C[C@@H]1CC[C@H]2C(=O)N3[C@@H](CC[C@@H](C)[C@@H]3c3cccc(N4CCOCC4)c3)C(=O)N2[C@H]1c1cccc(N2CCOCC2)c1	composite z-score	-0.459
CCOC(=O)C1=C[C@@H](c2ccccc2)N(S(=O)(=O)c2ccc(C)cc2)[C@H]1c1ccc(F)cc1	composite z-score	0.862
O=C1O[C@H](c2ccccc2)[C@H](c2ccccc2)N2[C@H]1[C@@H](C(=O)NC[C@H](O)c1ccccc1)[C@]1(C(=O)Nc3ccc(C#CC4=CCCCC4)cc31)[C@H]2c1ccc(OCCO)cc1	composite z-score	0.0884

Prompt line: I'd like to know its composite z-score. The compound in question is COC(=O)[C@@]1(Cc2ccc(OC)cc2)[C@H]2c3cc(C(=O)N(C)C)n(Cc4ccc(C)c(F)c4F)c3C[C@H]2CN1C(=O)c1ccccc1
Response line: 1.09

Prompt line: Dear colleague, I am looking for the recorded composite z-score of the following compound: O=C1C2C=CC(C(O)Cc3ccccc3)N(Nc3ccc([N+](=O)[O-])cc3)C2C(=O)N1c1ccccc1 (configuration not stated)
Response line: 0.905

Prompt line: Quick one: composite z-score for CCCC=C(CCC)[C@@H](NS(=O)(=O)c1ccc(-c2ccccc2)cc1)c1ccc(C(=O)OC)cc1 ?
Response line: 0.119

Prompt line: Query: composite z-score; subject: Cc1ccccc1C(O)C1C=CC2C(=O)N(c3ccccc3)C(=O)C2N1Nc1ccc(C#N)cc1 (configuration not stated)
Response line: 2.26

---

Test: PSAC antagonists in infected red cells, primary screen, cell-based, P. falciparum Indochina, OD700, 18 h (AID 1157)
Details: P. falciparum Indochina infected erythrocytes, osmotic lysis OD700, 18 h; higher = more signal, called active from +8 up or from −8 down
Activity calls are given as the source filed them.
measurement label: z-score

Prompt line: # z-score lookup, item C=CCN1C(=O)[C@@]2(O[C@@H](CCn3cc([C@H](O)c4ccccc4)nn3)[C@H]([Si](C)(C)c3ccc(OC)cc3)[C@H]2C)c2cc(N3CCOC3=O)ccc21
Response line: -0.233 (inactive)

Prompt line: Any idea what z-score was measured for O=C1O[C@H](c2ccccc2)[C@H](c2ccccc2)N2[C@H]1[C@@H](C(=O)NC[C@H](O)c1ccccc1)[C@]1(C(=O)Nc3ccc(C#CC4(O)CCCCCC4)cc31)[C@H]2c1ccc(OCCO)cc1 ?
Response line: -1.03 (inactive)

Prompt line: Name the reported z-score value associated with the compound COC(=O)Cn1c(C(=O)N2CCCC2)cc2c1C[C@H]1CN(C(=O)c3ccccc3)[C@@](Cc3ccc(OC)cc3)(C(=O)OC)[C@@H]21
Response line: 1.43 (inactive)

Prompt line: // z-score lookup, key: C=CCNC(=O)[C@H]1[C@@H]2C(=O)O[C@@H](c3ccccc3)[C@@H](c3ccccc3)N2[C@@H](c2ccc(O)cc2)[C@]12C(=O)Nc1ccc(C#CCNC(N)=O)cc12
Response line: 0.506 (inactive)

Prompt line: Can you look up the measured z-score of C=CCC(OC(C)=O)[C@@H]1[C@@H](N(Cc2cc3ccccc3o2)C(=O)Cc2ccc(F)cc2)c2cc(OCCCO)ccc2N1C(=O)c1ccc(-c2ccccc2)cc1 (stereo partly drawn) for me?
Response line: 0.0413 (inactive)

Prompt line: # z-score lookup, item C=C(C(=O)CC[C@H](OC(=O)c1ccccc1-c1ccccc1C(=O)O)c1ccc(CO)o1)C(C)C
Response line: 0.233 (inactive)

Prompt line: Recorded z-score for O=C1O[C@@H](c2ccccc2)[C@@H](c2ccccc2)N2[C@@H](c3ccc(OCCO)cc3)[C@]3(C(=O)Nc4ccc(C#CCCO)cc43)[C@@H](C(=O)N3CCN(c4ncccn4)CC3)[C@H]12 , please?
Response line: 0.664 (inactive)

Prompt line: Quick check: z-score of C[C@@H]1NC(=O)CC=C[C@@H](C)[C@@H]2C=C[C@H](O)[C@@H](COC(=O)[C@H](C)NC(=O)CC=C[C@@H](C)[C@@H]3C=C[C@H](O)[C@@H](COC1=O)O3)O2 ?
Response line: -1.39 (inactive)

Prompt line: Any idea what z-score was measured for C=C[C@H](OC)[C@@H](OC(=O)Nc1ccc(SC)cc1)c1ccc(OC)c(O)c1 ?
Response line: -1.02 (inactive)

Prompt line: Consider the compound C=CC(=O)O[C@@H](Cc1ccccc1)[C@H]1C2C=CCCC=C2CN1Cc1cccc(Cl)c1 (stereo partly drawn) and give its measured z-score.
Response line: 0.182 (inactive)

Prompt line: Name the recorded z-score for C=C(/C(=C/C[C@@H](OC(=O)c1ccncc1)c1ccc(CO)o1)c1cnc2ccccc2c1)C(C)C .
Response line: -0.0835 (inactive)

Prompt line: So what's the measured z-score for this one? C=C(COC)C(=O)CC[C@H](OC(=O)c1ccccc1-c1ccccc1C(=O)O)c1cccc(OCCO)c1
Response line: 1.36 (inactive)

Prompt line: Need z-score, item Cc1ccc(S[C@]2(C(=O)NCCN3CCOCC3)CC(=O)N(C3Cc4ccccc4C3)[C@@H]2c2ccc(CO)cc2I)cc1
Response line: -0.926 (inactive)
